# Read-out: Tissue Factor, F3 (gene 2152)
# Assay Explanation: BSK_CASM3C_TissueFactor: BioMAP Diversity Plus: CASM3C Assay for Tissue Factor Biomarker Activity (AID 2283052);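 also: cell surface tissue factor protein level read by ELISA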
# Assay Context: primary human coronary artery smooth muscle cells; actives raise or lower the signal
Activity calls are given as the source filed them. The calls were made as follows: active = hit-call score of the fitted dose curve at least 0.9, where 1 is the maximum; inactive = score below 0.9.
Possible outcomes: yes (1) = active, no (0) = inactive

>  <Compound>
C1=Cc2cccc3cccc1c23

>  <Class>
no (0)

$$$$
>  <Compound>
Clc1ccc(C(c2ccc(Cl)cc2)C(Cl)(Cl)Cl)cc1

>  <Class>
yes (1)

$$$$
>  <Compound>
CCCCCCCCCCCCCN1CC(C)OC(C)C1 (configuration not stated)

>  <Class>
no (0)

$$$$
>  <Compound>
CCCCOC(=O)c1ccccc1C(=O)OCc1ccccc1

>  <Class>
no (0)

$$$$
>  <Compound>
CCCCCCCCOC(=O)c1ccc(C(=O)OCCCCCCCC)c(C(=O)OCCCCCCCC)c1

>  <Class>
no (0)

$$$$
>  <Compound>
CN(C)c1ccccc1

>  <Class>
no (0)

$$$$
>  <Compound>
O=C(Nc1ccccc1)c1ccccc1I

>  <Class>
no (0)

$$$$
>  <Compound>
CNC(=O)Oc1cccc2c1OC(C)(C)C2

>  <Class>
no (0)

$$$$
>  <Compound>
Cn1cc(-c2ccccc2)c(=O)c(-c2cccc(C(F)(F)F)c2)c1

>  <Class>
no (0)

$$$$
>  <Compound>
Cc1ccc(N)c(N)c1

>  <Class>
no (0)

$$$$
>  <Compound>
C[C@]12C=CC3=C4CCC(=O)C=C4CC[C@H]3[C@@H]1CC[C@@H]2O

>  <Class>
no (0)

$$$$
>  <Compound>
COc1cc(C=O)cc2c1[C@H](COC(N)=O)[C@]1(OC(C)=O)ON2C[C@H]2[C@@H]1N2C(C)=O

>  <Class>
yes (1)

$$$$
>  <Compound>
CC(C)(C)OOC(=O)c1ccccc1

>  <Class>
no (0)

$$$$
>  <Compound>
[Cl-].[Cl-].[Hg+2]

>  <Class>
yes (1)

$$$$
>  <Compound>
C=CCc1ccc2c(c1)OCO2

>  <Class>
no (0)

$$$$
>  <Compound>
CCNS(=O)(=O)C(F)(F)C(F)(F)C(F)(F)C(F)(F)C(F)(F)C(F)(F)C(F)(F)C(F)(F)F

>  <Class>
no (0)

$$$$
>  <Compound>
O=C(N[C@H](c1ccccc1)[C@@H]1CN2CCC1CC2)c1c(Cl)ccc(C(F)(F)F)c1Cl

>  <Class>
no (0)

$$$$
